assayProtocol: growth inhibition, single agents and combos, ICB984, cell-based, cisplatin or BGB combos, synergistic combos for chromothripsis tumors (AID 1671451);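 also: cells exposed for 96 hours before readout; 0% = vehicle DMSO and 100% = killing by high DMSO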
studyConditions: ICB984 medulloblastoma cells, drug combinations, BGB IC40 combo, at 0.05 µM, stronger effect = higher value
Please use 1.0 whenever inhibition is not below -10%, and 0.0 whenever it is.

Example entries and their recorded answers appear below.
CC(C)OC(=O)[C@H](C)NP(=O)(OC[C@H]1O[C@@H](n2ccc(=O)[nH]c2=O)C(C)(F)[C@@H]1O)Oc1ccccc1 (some centres not stated)    0.0
C#CCC(CCCCCC)C(=O)O (configuration not stated)    0.0
CO[C@H]1/C=C/O[C@@]2(C)Oc3c(C)c(O)c4c(O)c(c5c(c4c3C2=O)=NC2(CCN(CC(C)C)CC2)N=5)NC(=O)/C(C)=C\C=C\[C@H](C)[C@H](O)[C@@H](C)[C@@H](O)[C@@H](C)[C@H](OC(C)=O)[C@@H]1C    1.0
COc1ccccc1S(=O)(=O)Nc1ccc2c(c1)CN(C)C(=O)N2    1.0
Cc1cc(C#N)cc(C)c1Oc1nc(Nc2ccc(C#N)cc2)nc(N)c1Br    1.0

Is it the case that CCC1(O)C(=O)OCc2c1cc1n(c2=O)Cc2cc3cc(O)ccc3nc2-1 (configuration not stated) has inhibition reaching or exceeding -10%?
1.0

Is it the case that C=C(C)C1CCC2(C(=O)O)CCC3(C)C(CCC4C5(C)CCC(O)C(C)(C)C5CCC43C)C12 (configuration not stated) has inhibition reaching or exceeding -10%?
1.0

Recorded values, source PubChem BioAssay.
